target: EsemOR1 (Eriocrania semipurpurella); experiment: Fluorescent calcium assay, HEK293 cells expressing EsemOrco and EsemOR1
Sequence (A0A2H4NTA3 1-412): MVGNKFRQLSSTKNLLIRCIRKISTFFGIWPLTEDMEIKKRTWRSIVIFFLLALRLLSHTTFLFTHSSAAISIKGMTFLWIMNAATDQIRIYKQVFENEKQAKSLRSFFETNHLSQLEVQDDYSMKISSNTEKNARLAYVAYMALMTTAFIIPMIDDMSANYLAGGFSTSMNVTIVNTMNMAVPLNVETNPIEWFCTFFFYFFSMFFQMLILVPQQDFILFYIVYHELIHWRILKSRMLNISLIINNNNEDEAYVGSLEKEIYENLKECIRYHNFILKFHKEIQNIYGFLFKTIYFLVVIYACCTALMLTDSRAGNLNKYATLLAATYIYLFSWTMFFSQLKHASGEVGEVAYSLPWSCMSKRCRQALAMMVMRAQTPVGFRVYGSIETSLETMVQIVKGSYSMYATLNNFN
Sequence (A0A2H4NT96 1-482 partner): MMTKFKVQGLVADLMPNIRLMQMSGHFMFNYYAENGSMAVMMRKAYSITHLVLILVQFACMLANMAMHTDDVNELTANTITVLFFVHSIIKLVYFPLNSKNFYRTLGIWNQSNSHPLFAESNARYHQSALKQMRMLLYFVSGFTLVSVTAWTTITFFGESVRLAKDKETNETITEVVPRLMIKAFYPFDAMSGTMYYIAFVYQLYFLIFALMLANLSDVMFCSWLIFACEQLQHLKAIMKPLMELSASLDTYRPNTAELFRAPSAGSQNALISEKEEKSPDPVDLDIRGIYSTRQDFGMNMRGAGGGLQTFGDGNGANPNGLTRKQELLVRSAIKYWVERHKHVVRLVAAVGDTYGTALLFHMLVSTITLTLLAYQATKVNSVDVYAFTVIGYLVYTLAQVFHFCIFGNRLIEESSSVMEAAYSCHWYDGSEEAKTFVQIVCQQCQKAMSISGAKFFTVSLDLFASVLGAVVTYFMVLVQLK
recorded_metric: EC50 (nM)
Output spec: scalar in nM, unitless text.

Problem: Which EC50 value is on record for C=C1CC/C=C(\C)CC[C@@H]2[C@@H]1CC2(C)C ?
Solution: 2430
